TARGET DESC: Human recombinant PDE2A (hPDE2A) (Homo sapiens, UniProt O00408)
Construct: His tag (inferred from metal chelate purification); made in house; host or cells: Sf9 insect cells (baculovirus)
Sequence (O00408 whole entry): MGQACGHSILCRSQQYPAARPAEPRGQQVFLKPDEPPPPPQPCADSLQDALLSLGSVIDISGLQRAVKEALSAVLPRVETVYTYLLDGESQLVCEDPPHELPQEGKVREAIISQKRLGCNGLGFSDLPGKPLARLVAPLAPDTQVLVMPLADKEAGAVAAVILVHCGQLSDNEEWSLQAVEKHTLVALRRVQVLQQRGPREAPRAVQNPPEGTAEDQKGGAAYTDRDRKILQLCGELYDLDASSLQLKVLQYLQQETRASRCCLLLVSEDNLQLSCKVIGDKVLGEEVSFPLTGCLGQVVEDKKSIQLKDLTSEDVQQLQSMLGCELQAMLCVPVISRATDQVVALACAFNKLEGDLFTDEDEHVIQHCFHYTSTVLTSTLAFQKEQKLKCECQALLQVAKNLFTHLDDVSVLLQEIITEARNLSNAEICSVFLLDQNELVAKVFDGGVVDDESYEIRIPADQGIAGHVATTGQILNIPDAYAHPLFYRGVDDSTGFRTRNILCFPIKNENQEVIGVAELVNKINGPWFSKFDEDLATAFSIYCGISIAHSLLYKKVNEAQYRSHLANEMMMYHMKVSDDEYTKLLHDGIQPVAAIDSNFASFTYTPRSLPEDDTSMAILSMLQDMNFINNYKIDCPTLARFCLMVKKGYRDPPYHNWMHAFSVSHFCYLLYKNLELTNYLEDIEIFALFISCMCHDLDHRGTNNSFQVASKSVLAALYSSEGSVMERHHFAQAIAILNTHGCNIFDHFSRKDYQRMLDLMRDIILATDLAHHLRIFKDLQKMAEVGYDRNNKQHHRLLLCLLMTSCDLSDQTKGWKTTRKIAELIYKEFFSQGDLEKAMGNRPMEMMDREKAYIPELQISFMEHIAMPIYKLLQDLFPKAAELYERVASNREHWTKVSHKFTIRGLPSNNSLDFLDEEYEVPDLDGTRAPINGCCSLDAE
PROCEDURE TEXT: In vitro assay PDE2A (SPA, 3H-cGMP hydrolysis)
Assay type: biochemical
ASSAY SETUP: read-out: hPDE2A Emax
Can you tell me Emax for the items I'm about to list?
Just the number please, in %, no unit attached.

Exercise: Output Emax of Cc1cc([C@@H]2CN(C(=O)c3cc(C4CC4)ncc3Cl)CC[C@H]2C)n2ncnc2n1
Key: 99

Exercise: Output Emax of C/C(=C\c1ccc(F)cc1)C(=O)N1[C@H]2CC[C@H](c3cc(C(F)F)nc4ncnn34)[C@@H]1CC2
Key: 100

Exercise: Output Emax of COc1c(F)cc(C(=O)N2CC[C@@H](C)[C@H](c3cc(C(F)F)nc4ncnn34)C2)cc1F
Key: 100

Exercise: Output Emax of Cc1cc(C(=O)N2CC[C@@H](C)[C@H](c3cc(C)nc4ncnn34)C2)cc(C(F)(F)F)n1
Key: 100

Exercise: Output Emax of COc1nc(C2CC2)cc(C(=O)N2CC[C@@H](C)[C@H](c3cc(C(F)F)nc4ncnn34)C2)c1F
Key: 100

Exercise: Output Emax of C[C@@H]1CCN(C(=O)c2ccnc(Cl)c2F)C[C@H]1c1cc(C(F)F)nc2ncnn12
Key: 101

Exercise: Output Emax of O=C(c1ccc(OC(F)(F)F)c(F)c1)N1[C@H]2CC[C@H](c3cc(C(F)F)nc4ncnn34)[C@@H]1CC2
Key: 100

Exercise: Output Emax of C[C@@H]1CCN(C(=O)c2cnc(Br)s2)C[C@H]1c1cc(C(F)F)nc2ncnn12
Key: 100

Exercise: Output Emax of Cc1ccc(C(=O)N2CC[C@@H](C)[C@H](c3cc(C(F)F)nc4ncnn34)C2)c(C)n1
Key: 97

Exercise: Output Emax of C[C@@H]1CCN(C(=O)c2ccc(F)nc2)C[C@H]1c1cc(C(F)F)nc2ncnn12
Key: 99

Exercise: Output Emax of Cc1cc(Cl)cc(C(=O)N2CC[C@@H](C)[C@H](c3cc(C(F)F)nc4ncnn34)C2)c1
Key: 100

Exercise: Output Emax of Cc1cc(C(=O)N2CC[C@@H](C)[C@H](c3cc(C(F)F)nc4ncnn34)C2)cnc1C
Key: 99

Exercise: Output Emax of C[C@@H]1CCN(C(=O)c2cnc3n2CCCC3)C[C@H]1c1cc(C(F)F)nc2ncnn12
Key: 100

Exercise: Output Emax of Cc1cc(C(=O)N2CC[C@@H](C)[C@H](c3cc(C(F)F)nc4ncnn34)C2)c(F)cn1
Key: 101

Exercise: Output Emax of C[C@@H]1CCN(C(=O)c2ccc3scnc3c2)C[C@H]1c1cc(C(F)F)nc2ncnn12
Key: 101

Exercise: Output Emax of Cc1cc(C)cc(C(=O)N2CC[C@@H](C)[C@H](c3cc(C(F)F)nc4ncnn34)C2)c1
Key: 99

Exercise: Output Emax of C[C@@H]1CCN(C(=O)c2ccc(C#N)cn2)C[C@H]1c1cc(C(F)F)nc2ncnn12
Key: 96

Exercise: Output Emax of C[C@@H]1CCN(C(=O)c2ccc3ccccc3c2)C[C@H]1c1cc(C(F)F)nc2ncnn12
Key: 98

Exercise: Output Emax of O=C(c1cc(Cl)cc(Cl)c1)N1[C@H]2CC[C@H](c3cc(C(F)F)nc4ncnn34)[C@@H]1CC2
Key: 99

Exercise: Output Emax of Cc1cc(C(=O)N2CC[C@@H](C)[C@H](c3cc(C(F)F)nc4ncnn34)C2)c(C(F)(F)F)cn1
Key: 99

Exercise: Output Emax of C[C@@H]1CCN(C(=O)c2cc(C3CC3)ncc2F)C[C@@]1(F)c1cc(C(F)F)nc2ncnn12
Key: 99

Exercise: Output Emax of Cc1cc([C@H]2CN(C(=O)c3ccc4ncsc4c3)CC[C@@H]2C)n2ncnc2n1
Key: 100

Exercise: Output Emax of O=C(c1ccc2nccnc2c1)N1[C@H]2CC[C@H](c3cc(C(F)F)nc4ncnn34)[C@@H]1CC2
Key: 99

Exercise: Output Emax of C[C@@H]1CCN(C(=O)c2ccc(Cl)c(C3CC3)c2)C[C@H]1c1cc(C(F)F)nc2ncnn12
Key: 100

Exercise: Output Emax of Cc1cc(C(=O)N2CC[C@@H](C)[C@H](c3cc(C(F)F)nc4ncnn34)C2)c(C)s1
Key: 100

Exercise: Output Emax of C[C@@H]1CCN(C(=O)c2ccc3nc(N)sc3c2)C[C@H]1c1cc(C(F)F)nc2ncnn12
Key: 101

Exercise: Output Emax of C[C@@H]1CCN(C(=O)c2ccc(O)nn2)C[C@H]1c1cc(C(F)F)nc2ncnn12
Key: 100

Exercise: Output Emax of Cc1cc(C(=O)N2CC[C@@H](C)[C@H](c3cc(C(F)F)nc4ncnn34)C2)cc(OC(F)F)n1
Key: 100

Exercise: Output Emax of O=C(c1ccc(C(F)(F)F)c(F)c1)N1[C@H]2CC[C@H](c3cc(C(F)F)nc4ncnn34)[C@@H]1CC2
Key: 99

Exercise: Output Emax of C[C@H]1CCN(C(=O)c2ccc3ncsc3c2)C[C@]1(F)c1cc(C(F)F)nc2ncnn12
Key: 88
